biological target: ERβ (Homo sapiens (Human), UniProt Q92731); assay: Cell-based ERβ luminescence antagonist assay (+E2); conditions: read-out: ERβ Antagonist (+E2); +E2
Sequence (Q92731 whole entry): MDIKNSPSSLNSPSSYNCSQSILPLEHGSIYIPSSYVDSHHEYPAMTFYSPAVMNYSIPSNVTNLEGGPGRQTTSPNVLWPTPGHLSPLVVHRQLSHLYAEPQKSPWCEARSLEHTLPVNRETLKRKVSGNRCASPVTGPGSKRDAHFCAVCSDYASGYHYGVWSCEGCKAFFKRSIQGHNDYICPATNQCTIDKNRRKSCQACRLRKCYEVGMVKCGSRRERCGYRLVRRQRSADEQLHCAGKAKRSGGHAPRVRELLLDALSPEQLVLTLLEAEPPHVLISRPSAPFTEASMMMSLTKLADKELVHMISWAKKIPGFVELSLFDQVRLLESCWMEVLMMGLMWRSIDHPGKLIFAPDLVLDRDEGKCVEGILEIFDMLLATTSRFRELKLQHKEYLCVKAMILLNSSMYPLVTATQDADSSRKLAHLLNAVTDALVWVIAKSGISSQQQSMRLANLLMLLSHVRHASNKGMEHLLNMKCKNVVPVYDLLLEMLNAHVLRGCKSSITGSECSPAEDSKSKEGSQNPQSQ
pIC50: −log10 of the molar value.

{"compound": "CCC1CCC(c2ccc(O)cc2)CC1 (stereo not shown)", "system": "ERβ (Homo sapiens (Human), UniProt Q92731)", "pIC50": "< 5.00"}

====

Reported Kd by item:
biological target: ERα (Homo sapiens (Human)); assay: Fluorescence polarization displacement assay (FITC-estradiol tracer); assay type: binding; settings: fluorescence polarization displacement
Sequence (P03372 whole entry): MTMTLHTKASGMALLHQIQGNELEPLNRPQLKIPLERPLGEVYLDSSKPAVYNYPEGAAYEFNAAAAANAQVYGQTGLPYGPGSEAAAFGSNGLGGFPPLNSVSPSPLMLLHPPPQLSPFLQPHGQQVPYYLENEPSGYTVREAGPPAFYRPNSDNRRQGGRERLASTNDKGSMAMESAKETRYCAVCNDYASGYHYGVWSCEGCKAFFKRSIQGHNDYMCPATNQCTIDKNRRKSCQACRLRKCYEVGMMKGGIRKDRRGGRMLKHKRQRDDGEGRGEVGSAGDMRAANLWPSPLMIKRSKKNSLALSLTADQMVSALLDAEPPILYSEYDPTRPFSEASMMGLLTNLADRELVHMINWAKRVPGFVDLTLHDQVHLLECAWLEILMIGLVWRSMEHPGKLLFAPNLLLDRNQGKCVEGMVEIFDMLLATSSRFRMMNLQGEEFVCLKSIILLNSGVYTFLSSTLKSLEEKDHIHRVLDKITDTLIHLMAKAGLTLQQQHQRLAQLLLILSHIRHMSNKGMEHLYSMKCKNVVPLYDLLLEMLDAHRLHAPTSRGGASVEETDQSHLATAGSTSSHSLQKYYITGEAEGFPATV

{"molecule": "CC[C@H](C)C1=CC[C@H]2[C@@H]3CCc4cc(O)ccc4[C@H]3CC[C@]12C [Compound 7]", "Kd [nM]": 160}
{"molecule": "CC1C[C@H](C)C2(CC[C@H]3[C@@H]4CCc5cc(O)ccc5[C@H]4CC[C@@]32C)O1 (stereo partly shown) [Compound 13]", "Kd [nM]": 160}
{"molecule": "C[C@@H](CCO)C1=CC[C@H]2[C@@H]3CCc4cc(O)ccc4[C@H]3CC[C@]12C [Compound 11]", "Kd [nM]": 320}
{"molecule": "CCCOC(=O)C1CC[C@H]2[C@@H]3CCc4cc(O)ccc4[C@H]3CC[C@]12C (stereo partly shown) [Compound 4]", "Kd [nM]": 320}
